Assay explanation: Activators via SNCA 5'UTR binding, MLPCN (AID 1814)
Assay conditions: alpha-synuclein 5'UTR reporter, activators screen; stronger effect = lower value; tested at 7.5 µM
The whole screen tested about 300,000 compounds, of which about 22,000 (7.3%) were called active. Roughly 2% stayed inconclusive and do not appear here. This is one part of a sample in which actives are shown more often than they occur.
Metric: activity score

Query: Given the entry O=C(COC(=O)c1cccc(Br)c1)Nc1cccc2c1C(=O)c1ccccc1C2=O , report its measured activity score.
Response: -79% (active)

Query: Look up activity score: Cc1cccc(Nc2nc(-c3ccccc3)cs2)n1
Response: -106% (active)

Query: I would be grateful if you could share the reported activity score for Clc1ccc(Nc2nc(-c3cccs3)cs2)nc1 .
Response: -244% (active)

Query: Param item = CCCNC(=O)c1c(Cl)cnn1-c1ccc(C)cc1 ; retrieve measured activity score.
Response: -137% (active)

Query: Please give the measured activity score for this compound: O=C1N=C(N2CCCC2)S/C1=C\c1cccc(Br)c1
Response: -122% (active)

Query: I would be grateful if you could share the reported activity score for COc1ccc(-c2ccc3nnc(SCC(=O)Nc4ccc(NC(C)=O)cc4)n3n2)cc1 .
Response: -81.8% (active)

Query: Given the entry C/C(=N/Nc1nc(-c2ccccc2)c(CC(=O)O)s1)c1ccccc1 , report its measured activity score.
Response: -168% (active)

Query: activity score for C=CCNC(=O)c1ccc2c3n(nc2c1)-c1ccc(C)cc1CO3 ?
Response: -197% (active)

Query: Fill in: activity score of Nc1scc(-c2ccncc2)c1Cl is ___
Response: -79.4% (active)

Query: Which measured activity score value corresponds to CC(C)Cc1cc(C(=O)NCCc2ccccc2)no1 ?
Response: -169% (active)

Query: What does the record list as activity score for C/C(=N\NC(=O)c1cccnc1)c1ccc(-c2ccccc2)cc1 ?
Response: -92.7% (active)

Query: Value lookup for activity score; key = CC(=O)Nc1cccc(-c2cnc3ccccc3n2)c1
Response: -207% (active)

Query: // query activity score value for entry Cc1ccc(OCc2nc3ccccc3n2C)cc1
Response: -109% (active)

Query: Which activity score value belongs to CC(C)c1ccc(NC(=O)Cn2ncc3ccccc32)cc1 ?
Response: -178% (active)

Query: Look up activity score for this compound: O=C(Nc1ccccc1F)c1ccc2c(c1)OCO2
Response: -199% (active)

Query: Need activity score of COc1ccccc1Nc1ncnc2c1oc1ccccc12 , thanks.
Response: -147% (active)

Query: Find the recorded activity score belonging to O=C(Nc1nnc(-c2ccccc2F)s1)c1ccccc1F and report it.
Response: -172% (active)

Query: activity score for CCN1CCN(c2ccc([N+](=O)[O-])cc2C(=O)c2ccc(Cl)cc2)CC1 ?
Response: -107% (active)

Query: GET /values?readout=activity score&item= Cc1ccc(N=C2NC(=O)/C(=C/C=C/c3ccco3)S2)cc1C
Response: -81.5% (active)

Query: Give its activity score value. Item: COCn1c(COc2ccccc2)nc2ccccc21
Response: -65.8% (active)
